Reference source for all entries: patent US20170151261A1

Target: EP4 (Homo sapiens, UniProt P35408)
Sequence (P35408 whole entry): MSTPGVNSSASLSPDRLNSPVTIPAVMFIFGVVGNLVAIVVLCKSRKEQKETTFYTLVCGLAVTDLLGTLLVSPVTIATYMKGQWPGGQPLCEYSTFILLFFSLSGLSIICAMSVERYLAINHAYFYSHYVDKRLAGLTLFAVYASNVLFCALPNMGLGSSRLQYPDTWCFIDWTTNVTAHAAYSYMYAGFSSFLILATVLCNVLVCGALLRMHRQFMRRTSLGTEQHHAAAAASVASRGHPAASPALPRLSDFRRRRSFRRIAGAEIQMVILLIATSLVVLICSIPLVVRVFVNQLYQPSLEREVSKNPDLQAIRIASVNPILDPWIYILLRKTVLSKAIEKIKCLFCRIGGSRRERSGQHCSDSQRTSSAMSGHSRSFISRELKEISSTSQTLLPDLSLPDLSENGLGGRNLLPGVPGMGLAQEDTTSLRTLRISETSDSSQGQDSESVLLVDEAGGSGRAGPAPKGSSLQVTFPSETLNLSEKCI
pIC50: −log10 of the molar value.
measurement.kind: pIC50

Item CCCCC[C@H](O)c1ccc(N2C(=O)CC[C@@H]2CCCc2ccc(C(=O)O)s2)cc1 with EP4 (Homo sapiens, UniProt P35408) - pIC50?
< 5.00
